Test system: HL-60
protocol: MTT cytotoxicity assay, 72 h
Format: cell-based, human
run.parameters: IC50 in MRC-5 / IC50 in HL-60
reported.endpoint: Selectivity Index (SI) MRC-5/HL-60
Write the value as a bare number.

| record.smiles | Selectivity Index (SI) MRC-5/HL-60 |
| --- | --- |
| COc1ccc(N2CCN(c3nc(Cl)nc4c3ncn4C3CCCC3)CC2)cc1 | 20.0 |

Now for a further molecule.
Record `Clc1ccc(N2CCN(c3nc(Cl)nc4c3ncn4C3CCCC3)CC2)cc1` , field Selectivity Index (SI) MRC-5/HL-60: 8.5

====

Parameter IC50: see the listing below.
Test system: CACO2
protocol: MTT cytotoxicity assay, 72 h
Assay type: cell-based, human
run.parameters: Homo sapiens, Caco-2, IC50 ± SD

Below, 5 molecules whose answers are already recorded.
| molecule | reported.endpoint | reading |
| --- | --- | --- |
| Clc1ccc(N2CCN(c3nc(Cl)nc4c3ncn4C3CCCC3)CC2)cc1 [7g] | IC50 | > 100 µM |
| CCCCCn1cnc2c(-c3ccc(OC(F)(F)F)cc3)nc(N3CCC(c4ccccc4)CC3)nc21 [4t] | IC50 | > 100 µM |
| CCCCCCn1cnc2c(-c3ccc(OC(F)(F)F)cc3)nc(NC3CCCCCC3)nc21 [4k] | IC50 | > 100 µM |
| FC(F)(F)c1ccc(N2CCN(c3nc(Cl)nc4c3ncn4C3CCCC3)CC2)nc1 [7c] | IC50 | > 100 µM |
| CCCCCn1cnc2c(-c3ccc(OC(F)(F)F)cc3)nc(NC3CCCCCC3)nc21 [4j] | IC50 | > 100 µM |

In plain terms, CCCCn1cnc2c(-c3ccc(OC(F)(F)F)cc3)nc(NC3CCCCCC3)nc21 [4i] has a documented IC50 of > 100 µM

Entry under test: Clc1nc(N2CCN(c3ccccn3)CC2)c2ncn(C3CCCC3)c2n1 [7b] . Its IC50 was > 100 µM

Entry Clc1nc(N2CCN(c3ccncc3)CC2)c2ncn(C3CCCC3)c2n1 [7i] , IC50 reported as > 100 µM

Notebook: Clc1nc(N2CCN(c3cnccn3)CC2)c2ncn(C3CCCC3)c2n1 [7d] , IC50 read as > 100 µM

====

Test system: NCI-H460
protocol: MTT cytotoxicity assay, 72 h
Type: cell-based, human
run.parameters: Homo sapiens, NCI-H460, -logIC50 in molar concentration, Table S2; read-out: Experimental pIC50 (NCI-H460) (converted)
reported.endpoint: IC50 (µM)
Respond with the bare value in µM.

Sample answers from the record:
| record.smiles | IC50 [µM] |
| --- | --- |
| Clc1nc(N2CCC(c3ccccc3)CC2)c2ncn(C3CCCC3)c2n1 | 11 |
| Clc1ccc(N2CCN(c3nc(Cl)nc4c3ncn4C3CCCC3)CC2)cc1 | 2.21 |
| FC(F)(F)c1ccc(N2CCN(c3nc(Cl)nc4c3ncn4C3CCCC3)CC2)nc1 | 4.79 |

Moving on to another compound below.
`COc1ccc(N2CCN(c3nc(Cl)nc4c3ncn4C3CCCC3)CC2)cc1` has a reported IC50 of 7.08

====

System: NCI-H460
protocol: MTT cytotoxicity assay, 72 h
Assay type: cell-based, human
run.parameters: MTT, 72 h, IC50 ± SD; read-out: IC50 NCI-H460
pIC50: −log10 of the molar value.
Would you please tag the item TRUE when its pIC50 is 5 or above, and FALSE when it is below?

Use the examples below as a reference point.
| compound | label |
| --- | --- |
| CCn1cnc2c(-c3ccc(OC(F)(F)F)cc3)nc(NCC3CCCCC3)nc21 | FALSE |
| CCCn1cnc2c(-c3ccc(OC(F)(F)F)cc3)nc(NC3CCCCC3)nc21 | FALSE |
| FC(F)(F)c1ccc(N2CCN(c3nc(Cl)nc4c3ncn4C3CCCC3)CC2)nc1 | TRUE |
| CCCn1cnc2c(-c3ccc(OC(F)(F)F)cc3)nc(NCC3CCCCC3)nc21 | FALSE |
| Clc1ccc(N2CCN(c3nc(Cl)nc4c3ncn4C3CCCC3)CC2)cc1 | TRUE |

In: Confirm if pIC50 reported for the compound `O=[N+]([O-])c1ccc(N2CCN(c3nc(Cl)nc4c3ncn4C3CCCC3)CC2)nc1` is 5 or above.
Out: TRUE

In: Reported pIC50 reaches at least 5 for N.N.[Cl][Pt][Cl] [Cisplatin, reference compound] ?
Out: TRUE

In: Check the entry `CCCn1cnc2c(-c3ccc(OC(F)(F)F)cc3)nc(NC3CCCC3)nc21` : does pIC50 equal or exceed 5?
Out: FALSE

In: Check if pIC50 >= 5 (inclusive). Item: `O=[N+]([O-])c1ccc(N2CCN(c3nc(Cl)nc4c3ncn4C3CCCC3)CC2)cc1`
Out: TRUE

In: Is it the case that `COc1ccc(N2CCN(c3nc(Cl)nc4c3ncn4C3CCCC3)CC2)cc1` has pIC50 reaching or exceeding 5?
Out: TRUE
